subject_of_test: GST tagged Bcl w delta C29 protein (UniProt Q92843)
test_method_notes: AlphaScreen GST detection; competitor: biotinylated BimBH3 peptide
pIC50: −log10 of the molar value. Bridge positions count the residues as written; N and C are the ends.
value_type: pIC50

1: Ac-IAQELRRIGDEF-NH2 (linker 4-11 via 1,5‑diaminopentane) [Acetyl-IAQ(E1)LRRIGD(E2)F-amide with a 1,5-diaminopentane linker (second position)]
2: Ac-IAQELRRIGDEF-NH2 [Linear 12mer Ac-…-NH2]
Inquiry: Field: entry with larger pIC50 (options 1 / 2 ). Write down the label attached to your selection.
Reply text: 1
